# credit: PubChem BioAssay (NCI)

Property: GI50; scope: individual compounds
# Test system: MDA-MB-231 breast
# assay-protocol: NCI tumour cell line growth inhibition, 48 h

Guide cases for GI50, answers given:
CCCC[n+]1c(/C=C\c2c(OC)cc(OC)cc2OC)ccc2ccccc21    1.42 µM
CC(C)(CCN=C(N)Nc1ccccn1)c1ccc(C(F)(F)F)cc1    14.9 µM
CCCCCCCCCCCCCCCC(=O)N[C@H](/C=C/[C@H](O)CCCCCCCCCCCCC)CO    > 100 µM

Query string: Quick one: GI50 for `NCCCn1c2c(c3ccc([N+](=O)[O-])cc3c1=O)C(=O)c1cc(-c3ccccc3)ccc1-2` ?
Result string: 1.29 µM

Query string: Fill in: GI50 of `O=C(c1ccco1)c1c(C(F)(F)F)nc2ccc(C(F)(F)F)cc2[n+]1[O-]` is ___
Result string: 23.7 µM

Query string: Form field: reported GI50 of `CO[C@]12C=C/C(=C(/C(=O)OCc3cccnc3)C(=O)CCCCCCCC[C@@]3(OC)C=C/C(=C(/C(=O)OCc4cccnc4)C(=O)CCCCCCCC1)O3)O2`
Result string: 2.25 µM

Query string: I am curious: what GI50 value has been reported for `CC(=O)c1ccc(Nc2nc(Nc3ccc(F)cc3)nc(Nc3ccc(F)cc3)n2)cc1` ?
Result string: 6.81 µM

Query string: Reported GI50 for `NCCCCCCCCCCCn1c2c(c3ccccc3c1=O)C(=O)c1ccccc1-2` : what is it?
Result string: 3.75 µM

====

# Tested on: RXF 393 renal
# assay-protocol: NCI tumour cell line growth inhibition, 48 h
measurement-type: TGI

Nc1ccccc1NC(=O)c1ccc(CN2CCC/C(=C\c3ccccn3)C2=O)cc1    3.48 µM

Query string: Endpoint output: TGI of CC(=O)OCC1=C(C(=O)O)C(c2ccc3c(c2)OCO3)c2cc3c(cc2O1)OCO3 (centres undefined) . Value?
Result string: > 100 µM

Query string: Quick check: TGI of `O=c1c(C2=NCCC2)c(-c2ccc[nH]2)[nH]n1-c1ccccc1` ?
Result string: > 100 µM

Query string: Data request, read-out TGI, for `COc1cccc2c3ccccc3c3nc[nH]c3c12`
Result string: > 100 µM

Query string: // lookup TGI for `COc1ccc(-c2nnc3n(Cc4ccccc4)c4ccccc4n3c2=O)cc1`
Result string: 61.8 µM

Query string: Quick check: TGI of `CCCCCCCCCCCCCCCC(=O)N[C@H](/C=C/[C@H](O)CCCCCCCCCCCCC)CO` ?
Result string: > 100 µM

====

# System: OVCAR-8 ovarian
# assay-protocol: NCI tumour cell line growth inhibition, 48 h
measurement-type: TGI

Sample answers from the record:
Fc1ccc(-c2nn3c(-c4cc(C(F)(F)F)cc(C(F)(F)F)c4)nnc3s2)cc1    > 50 µM
Nn1c(CCCCCCCCc2nnc(COc3ccccc3)n2N)nnc1COc1ccccc1    > 100 µM

Query string: Given the entry CC(=O)OC12c3ccccc3-c3ccccc3C1C(C(=O)O)C2(Cl)C(=O)O (stereo unspecified) , report its measured TGI.
Result string: > 10 µM

Query string: Recorded TGI for `O=C(OC[C@H]1C[C@H]2C(=O)CCC[C@H]2O1)c1ccccc1` , please?
Result string: > 100 µM

Query string: Given the compound COC(=O)C1=CC2CC1C(S(=O)(=O)c1ccccc1)C2S(=O)(=O)c1ccccc1 (stereo unspecified) , what is its reported TGI?
Result string: 38.5 µM

Query string: Which TGI is listed for `COC(=O)[C@@]1(Cc2ccc(O)cc2)C[C@@H]2Cc3ccccc3N2N1` ?
Result string: > 100 µM

Query string: Suppose we examine the compound `CCCCCCCCCCC/C=C\C[C@H](O)C/C=C1/C(=O)C=C[C@@H]1C/C=C\CCCC(=O)OC` ; what TGI value has been reported?
Result string: 4.64 µM

Query string: I would be grateful if you could share the reported TGI for `CC1=NN2C(c3ccc(C)cc3)=CSC2=NC(C)(C)C1` .
Result string: > 100 µM

Query string: Quick check: TGI of Cc1ccc2c(c1)C1(OC(=O)c3ccccc31)c1ccc(F)cc1O2 (stereo unspecified) ?
Result string: > 100 µM

Query string: Quick one: TGI of `COC(=O)NC(=Nc1ccc(Oc2ccccc2)cc1NC=O)NC(=O)OC` ?
Result string: 8.57 µM

Query string: Request the reported TGI associated with CC(=O)OCC1=C(C(=O)O)C(c2ccc3c(c2)OCO3)c2cc3c(cc2O1)OCO3 (stereo unspecified)
Result string: > 100 µM

Query string: Please give the measured TGI for this compound: `COc1cc(CNC2=NCCC2)cc(OC)c1OC`
Result string: > 100 µM

Query string: What value of TGI has been recorded for this entry: `COc1cc2nc(-c3ccc(Cl)cc3)cc(OCCCN3CCCC3)c2cc1OC`
Result string: 16.1 µM

Query string: Return reported TGI; argument: `COc1cccc(CCNc2c(C#N)c3nc4ccccc4n3c3ccccc23)c1`
Result string: > 100 µM

Query string: Reported TGI, compound `C[C@]12CC[C@H]3[C@@H](CCC4=CC(=O)CC[C@@]43C)[C@@H]1CC[C@@H]2C(=O)COS(=O)(=O)c1ccc(Br)cc1` : ____
Result string: 14.3 µM

Query string: Find the recorded TGI belonging to `COc1ccc(-c2nnc3n(Cc4ccccc4)c4ccccc4n3c2=O)cc1` and report it.
Result string: > 100 µM

Query string: Consider the compound `O=C1C=CC(=Nc2ccccc2)c2ccccc21` and give its measured TGI.
Result string: 24.6 µM

Query string: TGI lookup needed for `O=C1CCCCC=C1C[N+](=O)[O-]` , thanks.
Result string: > 100 µM

Query string: If you can, please state the reported TGI value of `CCN(CC)CCOc1ccc(/C=C2\C[C@H]3[C@H]4CC=C5C[C@@H](O)CC[C@]5(C)[C@H]4CC[C@]3(C)[C@H]2O)cc1OC` .
Result string: 26.5 µM

Query string: // lookup TGI for CCCC(N)C(=O)c1ccccc1 (stereo unspecified)
Result string: > 100 µM

Query string: Which TGI is listed for Cc1cc(C)nc(SCC(=O)OC2CC(C)CCC2C(C)C)n1 (stereo unspecified) ?
Result string: > 100 µM

====

# System: PC-3 prostate
# assay-protocol: NCI tumour cell line growth inhibition, 48 h; in the data active = GI50 below about 0.43 µM; inactive = the rest
Return exactly one item of true = active, false = inactive

Look over these answered cases.
Cc1cccc2nc3cccc(C(=O)NCCNCCNCCNC(=O)c4cccc5nc6cccc(C)c6nc45)c3nc12    true
CC(C)(CCN=C(N)Nc1ccccn1)c1ccc(C(F)(F)F)cc1    false
N#Cc1ccsc1NC(=O)COC(=O)c1cccc(S(=O)(=O)N2CCc3ccccc32)c1    false

Query string: Tell me the assay call for `O=[N+]([O-])c1ccc(Sc2nc(Cl)nc(NC3CCCC3)n2)cc1` please.
Result string: false

Query string: In this assay, the call recorded for CC1=C(C(=O)Nc2ccc3[nH]ncc3c2)C(c2ccc(Cl)c(Cl)c2)CC(=O)N1 (stereo unspecified) was what?
Result string: false

Query string: Identify the outcome logged in this assay for the compound shown: `CCN(Cc1ccccc1Cl)c1ccc(CO)c(Cl)c1`
Result string: false

Query string: GET /call?item= `CC(=O)c1ccc(Nc2nc(Nc3ccc(F)cc3)nc(Nc3ccc(F)cc3)n2)cc1` returns the recorded outcome of this test.
Result string: false

Query string: Look up the recorded call for CCCCCCC/C=C/[C@H]1O[C@]2(O)C(=O)C=C3C[C@@H](O[C@@H]4O[C@H](CO)[C@@H](O)C(O)[C@@H]4O)C[C@@H]3[C@H]2C=C1C (stereo partly specified) in this test.
Result string: false

Query string: Write down the call the test reported for this compound. Item: `Nc1ccccc1NC(=O)c1ccc(CN2CCC/C(=C\c3ccccn3)C2=O)cc1`
Result string: false

Query string: Could you kindly confirm the outcome this assay logged for NC1CCC(Nc2nc(NCc3cc(Cl)ccc3O)c3ncn(C4CCCC4)c3n2)CC1 (stereo unspecified) ?
Result string: true

Query string: For `Cc1ccc(/C=C/C(=N/N=C(N)N)c2ccccc2)cc1` , which call appears in the assay record?
Result string: false

====

Below: a set of entries, each annotated with reported GI50.
# Test system: SN12C renal
# assay-protocol: NCI tumour cell line growth inhibition, 48 h

Query string: Given the entry `O=c1c2cccc(F)c2sc2c(N3CCNCC3)nc3ccccc3c12` , what GI50 was observed with SN12C renal?
Result string: 1.32 µM

====

# System: UACC-257 melanoma
# assay-protocol: NCI tumour cell line growth inhibition, 48 h; in the data active = GI50 below about 0.43 µM; inactive = the rest
Outcome field: choose from 1.0 for active, 0.0 for inactive

Below, 3 molecules whose answers are already recorded.
COc1ccc(-c2nn(-c3cccc(NC(=O)Nc4ccccc4)c3)cc2-c2ccncc2)cc1Cl    0.0
C1COCCOCCOCCOCCOCCO1.[Cl][Sn]([Cl])([c]1ccccc1)[c]1ccccc1    0.0
C/C(=N\NC(=S)N1CCN(C2CCCCCC2)CC1)c1ccccn1    1.0

Query string: Called result for NC1CCC(Nc2nc(NCc3cc(Cl)ccc3O)c3ncn(C4CCCC4)c3n2)CC1 (stereo unspecified)
Result string: 1.0

Query string: In this assay, the call recorded for `N.N.O=P([O-])([O-])CN(CCN(CP(=O)([O-])[O-])CP(=O)([O-])[O-])CP(=O)([O-])[O-].[Pt+2]` was what?
Result string: 0.0

Query string: For `Cc1cccc2nc3cccc(C(=O)NCCNCCNCCNC(=O)c4cccc5nc6cccc(C)c6nc45)c3nc12` , which call appears in the assay record?
Result string: 1.0

Query string: What is the recorded call for this molecule in the test? `CCOC(=O)c1ccc2c(c1)nc(/C=C/c1ccc(Cl)cc1)n2-c1cc(C(C)(C)C)[nH]n1`
Result string: 0.0
